System: HL-1
ASSAY DETAILS: cardiomyocyte survival under oxidative or metabolic stress – cell-based, panel, H9c2 and HL-1, H2O2, 2-deoxyglucose, ATP luminescence, SAR follow-up (AID 651642)
CONDITION LABEL: H9c2/HL-1 cardiomyocyte H2O2 oxidative damage, run 2, with H2O2
Let's look at some compounds and their measured IC50.

Would you please look over these solved cases?
> print(dat)
                                   compound  attribute.measured  observed.measurement
1  CCOC(=O)c1ccc(NC(=O)c2cc(-c3cc(OC)c(OC)c(OC)c3)nc3ccccc23)cc1                IC50               > 79 µM
2  COc1cc(-c2cc(C(=O)Nc3cccc(C(C)=O)c3)c3cccc(Cl)c3n2)cc(OC)c1OC                IC50               > 79 µM

Now look at this one.
**Q:** Entry under review: COc1ccc2c(c1OC)C(=O)N1c3ccccc3C(=O)N(Cc3ccc(F)cc3)C21 (stereo not drawn) . Reported IC50?
**A:** > 79 µM

###

System: H9c2
ASSAY DETAILS: cardiomyocyte survival under oxidative or metabolic stress – cell-based, panel, H9c2 and HL-1, H2O2, 2-deoxyglucose, ATP luminescence, SAR follow-up (AID 651642)
CONDITION LABEL: H9c2/HL-1 cardiomyocyte H2O2 oxidative damage, run 3, with H2O2
Listed below: IC50 values for each entry.

Past entries and their recorded results:
> print(dat)
                                   molecule  target.under.test  attribute.measured  observed.measurement
1  CCOC(=O)c1cccc(NC(=O)c2cc(-c3cc(OC)c(OC)c(OC)c3)nc3ccccc23)c1               H9c2                IC50               > 79 µM
2  CCNC(=O)c1cccc(NC(=O)c2cc(-c3cc(OC)c(OC)c(OC)c3)nc3ccccc23)c1               H9c2                IC50               2.88 µM
3  COc1cc(-c2cc(C(=O)Nc3cccc(C(C)=O)c3)c3ccc(Cl)cc3n2)cc(OC)c1OC               H9c2                IC50               > 79 µM
4  CCOC(=O)c1ccccc1NC(=O)c1cc(-c2cc(OC)c(OC)c(OC)c2)nc2ccccc12               H9c2                IC50               > 79 µM
5  COc1cc(-c2cc(C(=O)NCC(=O)O)c3ccccc3n2)cc(OC)c1OC               H9c2                IC50               > 79 µM

**Q:** I am curious: what IC50 value has been reported for CCOC(=O)c1cccc(NC(=O)c2cc(-c3cc(OC)c(OC)c(OC)c3)nc3ccc(F)cc23)c1 ?
**A:** > 79 µM

**Q:** One more molecule: CCOC(=O)c1cccc(NC(=O)c2cc(-c3cc(OC)c(OC)c(OC)c3)nc3ccc(Cl)cc23)c1
**A:** > 79 µM

**Q:** Please do the same for COc1ccc2c(c1OC)C(=O)N1c3ccccc3C(=O)N(Cc3ccc(C)cc3C)C21 (stereo unspecified) as well.
**A:** > 79 µM

**Q:** Try the molecule COc1cc(-c2cc(C(=O)Nc3cccc(C(C)=O)c3)c3ccccc3n2)cc(OC)c1OC
**A:** > 79 µM

**Q:** What about this molecule? COc1ccc2nc(-c3cc(OC)c(OC)c(OC)c3)cc(C(=O)NCC(=O)Nc3cccc(C(C)=O)c3)c2c1
**A:** > 79 µM

**Q:** Now consider CCOC(=O)c1cccc(NC(=O)CNC(=O)c2cc(-c3cc(OC)c(OC)c(OC)c3)nc3ccc(Br)cc23)c1 and answer again.
**A:** 0.953 µM

###

Reported IC50 values for the following compounds.
Tested on: HL-1
ASSAY DETAILS: cardiomyocyte survival under oxidative or metabolic stress – cell-based, panel, H9c2 and HL-1, H2O2, 2-deoxyglucose, ATP luminescence, SAR follow-up (AID 651642)
CONDITION LABEL: H9c2/HL-1 cardiomyocyte 2-deoxyglucose damage, run 1, with 2-deoxyglucose

> print(dat)
                                   compound  target.under.test  observed.measurement
1  COc1ccc2c(c1OC)C(=O)N1c3ccccc3C(=O)N(Cc3ccccn3)C21 (stereo not drawn)               HL-1               > 79 µM
2  COc1cc(-c2cc(C(=O)NCC(=O)O)c3ccccc3n2)cc(OC)c1OC               HL-1               > 79 µM

Now, please, on to the next compound.
**Q:** Enter reported IC50 observed with HL-1 for COc1cc(-c2cc(C(=O)Nc3cccc(C(C)=O)c3)c3cccc(Cl)c3n2)cc(OC)c1OC
**A:** > 79 µM

###

Tested on: HL-1
ASSAY DETAILS: cardiomyocyte survival under oxidative or metabolic stress – cell-based, panel, H9c2 and HL-1, H2O2, 2-deoxyglucose, ATP luminescence, SAR follow-up (AID 651642)
CONDITION LABEL: H9c2/HL-1 cardiomyocyte 2-deoxyglucose damage, mean of runs, with 2-deoxyglucose, mean IC50 across panel
Listing of entries alongside the reported pIC50.
API: returns pIC50 as number; meaning -log10 of concentration in mol/L.

Example cases with answers are listed next.
> print(dat)
                                   compound  attribute.measured  observed.measurement
1  COc1ccc2c(c1OC)C(=O)N1c3ccccc3C(=O)N(Cc3ccccc3Cl)C21 (stereo unspecified)               pIC50                  5.64
2  COc1cc(-c2cc(C(=O)NCC(=O)Nc3cccc(C(C)=O)c3)c3cc(C)ccc3n2)cc(OC)c1OC               pIC50                  4.64

Next compound, pIC50 to be filled in.
**Q:** Data request, read-out pIC50, for COc1ccc2nc(-c3cc(OC)c(OC)c(OC)c3)cc(C(=O)NCC(=O)Nc3cccc(C(C)=O)c3)c2c1
**A:** 5.54

###

Measured IC50 values are reported for all entries that follow.
Test system: H9c2
ASSAY DETAILS: cardiomyocyte survival under oxidative or metabolic stress – cell-based, panel, H9c2 and HL-1, H2O2, 2-deoxyglucose, ATP luminescence, SAR follow-up (AID 651642)
CONDITION LABEL: H9c2/HL-1 cardiomyocyte H2O2 oxidative damage, run 3, with H2O2
Quick note: give the figure in µM, leave out the unit.

Solved entries:
> print(dat)
                           structure.smiles  attribute.measured  observed.measurement
1  COc1cc(-c2cc(C(=O)Nc3cccc(C(=O)N(C)C)c3)c3ccccc3n2)cc(OC)c1OC                IC50                   3.3
2  COc1cccc(CNC(=O)CNC(=O)c2cc(-c3cc(OC)c(OC)c(OC)c3)nc3ccccc23)c1                IC50                  4.38
3  COc1cc(-c2cc(C(=O)NCC(=O)Nc3ccc(C(C)=O)cc3)c3cc(C)ccc3n2)cc(OC)c1OC                IC50                  1.09

Okay, now this compound:
**Q:** Reported IC50, compound COc1cc(-c2cc(C(=O)NCC(=O)Nc3cccc(C(C)=O)c3)c3cc(Br)ccc3n2)cc(OC)c1OC : ____
**A:** 1.02

###

Test system: HL-1
ASSAY DETAILS: cardiomyocyte survival under oxidative or metabolic stress – cell-based, panel, H9c2 and HL-1, H2O2, 2-deoxyglucose, ATP luminescence, SAR follow-up (AID 651642)
CONDITION LABEL: H9c2/HL-1 cardiomyocyte 2-deoxyglucose damage, mean of runs, with 2-deoxyglucose, mean IC50 across panel
ATTRIBUTE MEASURED: IC50

Observe how each entry below is paired with its result.
> print(dat)
                           structure.smiles  observed.measurement
1  CCOC(=O)c1cccc(NC(=O)c2cc(-c3cc(OC)c(OC)c(OC)c3)nc3cc(Cl)ccc23)c1               > 79 µM
2  COc1cc(-c2cc(C(=O)Nc3cccc(C(C)=O)c3)c3ccc(Cl)cc3n2)cc(OC)c1OC               > 79 µM

**Q:** Which IC50 reading was recorded for the compound COc1cc(-c2cc(C(=O)Nc3cccc(C(=O)O)c3)c3ccccc3n2)cc(OC)c1OC ?
**A:** > 79 µM
